tested on: Aspergillus flavus; assay: Antifungal activity against Aspergillus flavus at 10 to 50 ug/ml after 3 to 4 days by serial plate dilution method; format: functional
MEASURED QUANTITY: inhibition zone (IZ) (mm)
Give your result in mm as a bare value.

// solved cases for inhibition zone (IZ) follow
molecule="CC(C)(C)C1=NNC(=O)C1Oc1ccccc1 (centres undefined)" units_label=mm measured_value=16
molecule="COCC1=NNC(=O)C1Oc1ccccc1 (centres undefined)" units_label=mm measured_value=18

Continue with the next molecule.
-- ask inhibition zone (IZ) lookup needed for CC(C)CC1=NNC(=O)C1Sc1ccc(Cl)cc1 (centres undefined) , thanks.
-- reply 18

###

test system: Talaromyces marneffei; test: Antifungal activity against Penicillium marneffei after 3 to 4 days by serial plate dilution method; assay type: functional
MEASURED QUANTITY: MIC
Please make sure the unit comes right after the number.

compound="CC1=NNC(=O)C1OCc1cccc(Br)c1 (configuration not stated)" measured_value="6.25 µg/mL"
compound="O=C1NN=C(COc2ccccc2)C1Oc1ccccc1 (configuration not stated)" measured_value="6.25 µg/mL"

-- ask Bench note: what MIC did COCC1=NNC(=O)C1Oc1ccccc1 (configuration not stated) show?
-- reply 6.25 µg/mL

-- ask Entry CCC1=NN(c2ccc(F)cc2)C(=O)C1Oc1ccccc1 (configuration not stated) : reported MIC = ?
-- reply 6.25 µg/mL

-- ask Need MIC of O=C1NN=C(c2ccc(Cl)cc2)C1Oc1ccccc1 (configuration not stated) , thanks.
-- reply 50 µg/mL

-- ask What measured MIC goes with CC(C)CC1=NNC(=O)C1Sc1ccc(Cl)cc1 (configuration not stated) ?
-- reply 6.25 µg/mL

-- ask Fill blank: measured MIC of the compound CCC1=NNC(=O)C1Oc1ccccc1 (configuration not stated) is ____.
-- reply 6.25 µg/mL

###

tested on: Escherichia coli; assay: Antibacterial activity against Escherichia coli ATTC 25922 after 24 hrs by disk diffusion method; assay type: functional; conditions: Escherichia coli, ATTC 25922, 24 h
MEASURED QUANTITY: MIC

compound="CC(C)CC1=NN(C)C(=O)C1Oc1ccccc1 (configuration not stated)" measured_quantity=MIC measured_value="25 µg/mL"
compound="O=C1NN=C(COc2ccccc2)C1Oc1ccccc1 (configuration not stated)" measured_quantity=MIC measured_value="6.25 µg/mL"
compound="CC(C)CC1=NNC(=O)C1Sc1ccccc1 (configuration not stated)" measured_quantity=MIC measured_value="6.25 µg/mL"

-- ask What value of MIC has been reported for the following compound? CC1=NNC(=O)C1Sc1ccccc1 (configuration not stated)
-- reply 25 µg/mL

-- ask Using the record for O=C1NN=C(c2ccc(Cl)cc2)C1Oc1ccccc1 (configuration not stated) , report its MIC.
-- reply 25 µg/mL

-- ask Which MIC is listed for CC(C)C1=NNC(=O)C1Sc1ccccc1 (configuration not stated) ?
-- reply 6.25 µg/mL

###

tested on: Staphylococcus aureus; assay: Antibacterial activity against Staphylococcus aureus ATCC 25923 after 24 hrs by disk diffusion method; type: functional
MEASURED QUANTITY: inhibition zone (IZ) (mm)
The reply should contain only the number, in mm.

compound="CC(C)CC1=NNC(=O)C1Sc1ccc(Cl)cc1 (centres undefined)" measured_quantity="inhibition zone (IZ)" units_label=mm measured_value=18
compound="CC(C)CC1=NN(c2ccc(F)cc2)C(=O)C1Sc1ccccc1 (centres undefined)" measured_quantity="inhibition zone (IZ)" units_label=mm measured_value=19
compound="CCC1=NNC(=O)C1SCc1ccccc1 (centres undefined)" measured_quantity="inhibition zone (IZ)" units_label=mm measured_value=16
compound="CC1=NNC(=O)C1OCc1cccc(Br)c1 (centres undefined)" measured_quantity="inhibition zone (IZ)" units_label=mm measured_value=21
compound="O=C1NN=C(c2ccc(Cl)cc2)C1Oc1ccccc1 (centres undefined)" measured_quantity="inhibition zone (IZ)" units_label=mm measured_value=21
compound="CC(C)CC1=NNC(=O)C1Sc1ccccc1 (centres undefined)" measured_quantity="inhibition zone (IZ)" units_label=mm measured_value=19
compound="CC1=NNC(=O)C1Sc1ccccc1 (centres undefined)" measured_quantity="inhibition zone (IZ)" units_label=mm measured_value=18
compound="CC(C)CC1=NN(C)C(=O)C1Oc1ccccc1 (centres undefined)" measured_quantity="inhibition zone (IZ)" units_label=mm measured_value=19
compound="CCC1=NN(c2ccc(F)cc2)C(=O)C1Oc1ccccc1 (centres undefined)" measured_quantity="inhibition zone (IZ)" units_label=mm measured_value=16
compound="CC(C)(C)C1=NNC(=O)C1Oc1ccccc1 (centres undefined)" measured_quantity="inhibition zone (IZ)" units_label=mm measured_value=16

-- ask Need inhibition zone (IZ) of COc1ccc(OC2C(=O)NN=C2C)cc1 (centres undefined) , thanks.
-- reply 19

-- ask // lookup inhibition zone (IZ) for COCC1=NNC(=O)C1SCc1ccccc1 (centres undefined)
-- reply 17

-- ask For the compound O=C1NN=C(COc2ccccc2)C1Oc1ccccc1 (centres undefined) , what inhibition zone (IZ) is on record?
-- reply 18

-- ask I would be grateful if you could share the reported inhibition zone (IZ) for CCC1=NNC(=O)C1Oc1ccccc1 (centres undefined) .
-- reply 19

###

Listed here are molecules together with their documented inhibition zone (IZ).
tested on: Pseudomonas aeruginosa; test: Antibacterial activity against Pseudomonas aeruginosa ATTC 27853 after 24 hrs by disk diffusion method; type: functional
The response must be a number in mm with no trailing unit.

Some solved entries appear below for comparison.
molecule="CC1=NNC(=O)C1Sc1ccccc1 (configuration not stated)" measured_value=19
molecule="CC(C)CC1=NN(C)C(=O)C1Oc1ccccc1 (configuration not stated)" measured_value=19
molecule="O=C1NN=C(COc2ccccc2)C1Oc1ccccc1 (configuration not stated)" measured_value=16
molecule="CCC1=NNC(=O)C1SCc1ccccc1 (configuration not stated)" measured_value=20
molecule="CCC1=NNC(=O)C1Oc1ccccc1 (configuration not stated)" measured_value=20

-- ask Endpoint output: inhibition zone (IZ) of O=C(O)c1cn(C2CC2)c2cc(N3CCNCC3)c(F)cc2c1=O . Value?
-- reply 28

-- ask What value of measured inhibition zone (IZ) is listed for CC(C)CC1=NNC(=O)C1Sc1ccc(Cl)cc1 (configuration not stated) ?
-- reply 17

-- ask # query: inhibition zone (IZ) of entry CC(C)(C)C1=NNC(=O)C1Oc1ccccc1 (configuration not stated)
-- reply 20

-- ask Would you kindly share the measured inhibition zone (IZ) for CC1=NNC(=O)C1OCc1cccc(Br)c1 (configuration not stated) ?
-- reply 18

###

# maps each entry to its inhibition zone (IZ)
system: Staphylococcus aureus; experiment: Antibacterial activity against Staphylococcus aureus ATCC 25923 after 24 hrs by disk diffusion method; type: functional
Expressed in mm, but write only the number.

Known inhibition zone (IZ) results, listed for orientation:
molecule="COCC1=NNC(=O)C1Oc1ccccc1 (stereo not drawn)" measured_value=17
molecule="CC(C)C1=NNC(=O)C1Sc1ccccc1 (stereo not drawn)" measured_value=20

Lab note: next molecule to report on.
-- ask // returns reported inhibition zone (IZ) for input O=C(O)c1cn(C2CC2)c2cc(N3CCNCC3)c(F)cc2c1=O
-- reply 23

###

system: Aspergillus fumigatus; experiment: Antifungal activity against Aspergillus fumigatus at 10 to 50 ug/ml after 3 to 4 days by serial plate dilution method; assay type: functional
The label depends only on inhibition zone (IZ): true if it is at least 20 mm, false if it is smaller.

The examples below pair each entry with its known result.
compound="CCC1=NNC(=O)C1SCc1ccccc1 (configuration not stated)" assigned_label=false
compound="CC(C)(C)C1=NNC(=O)C1Oc1ccccc1 (configuration not stated)" assigned_label=false
compound="O=C1NN=C(c2ccc(Cl)cc2)C1Oc1ccccc1 (configuration not stated)" assigned_label=false
compound="COCC1=NNC(=O)C1SCc1ccccc1 (configuration not stated)" assigned_label=false
compound="CC(C)CC1=NNC(=O)C1Sc1ccc(Cl)cc1 (configuration not stated)" assigned_label=false

-- ask Decide: inhibition zone (IZ) of O=C1NN=C(COc2ccccc2)C1Oc1ccccc1 (configuration not stated) >= 20 mm?
-- reply true

-- ask Hi, just wondering whether CCC1=NNC(=O)C1Oc1ccccc1 (configuration not stated) shows inhibition zone (IZ) of 20 mm or higher.
-- reply false

-- ask Determine whether measured inhibition zone (IZ) meets or exceeds 20 mm for COc1ccc(OC2C(=O)NN=C2C)cc1 (configuration not stated)
-- reply false

-- ask Could you please find out whether Cc1cc(C2CCCCC2)n(O)c(=O)c1.NCCO [CICLOPIROX OLAMINE] has inhibition zone (IZ) that meets 20 mm or exceeds it?
-- reply true

-- ask Reported inhibition zone (IZ) reaches at least 20 mm for CC(C)CC1=NN(C)C(=O)C1Oc1ccccc1 (configuration not stated) ?
-- reply false

-- ask Please tell me: is the compound CC(C)CC1=NN(c2ccc(F)cc2)C(=O)C1Sc1ccccc1 (configuration not stated) at or over 20 mm in terms of inhibition zone (IZ)?
-- reply false

Value source: ChEMBL document CHEMBL1154152
